# maps each entry to its T/C
System: CD2F1 mice, L1210 leukemia ip, survival T/C
method-notes: NCI In Vivo Anticancer Drug Screen. Data for tumor model L1210 Leukemia (intraperitoneal) in CD2F1 (CDF1) mice
condition-set: endpoint: mean survival time; dose: 12.5 mg/kg/injection; schedule: Q01DX009 (ip); vehicle: saline with Tween-80; higher = longer survival
Toxic doses and inconclusive results are not listed.

Use these answered entries as a reference point.
compound | T/C
ClC1CC[N-]CC1.ClC1CC[N-]CC1.O=C(O)CC(=O)O.[Pt+2] | 96 % of control
COC(=O)c1cc2cc3c(c(O)c2c(=O)o1)OC1(Cc2c(O)c4c(c(O)c2O1)C(=O)C(OC)CC4=O)CC3O (centres undefined) | 92 % of control
CC(C[P+](c1ccccc1)(c1ccccc1)c1ccccc1)C(O)(C(=O)c1ccccc1)c1ccccc1 (centres undefined) | 110 % of control

Ask: Please report the recorded T/C for C/C=C/C(=O)NCC(C(C)C)/[N+]([O-])=N/O (centres undefined) .
Reply: 103 % of control

* * *

Tested on: CD2F1 mice, L1210 leukemia ip, survival T/C
method-notes: NCI In Vivo Anticancer Drug Screen. Data for tumor model L1210 Leukemia (intraperitoneal) in CD2F1 (CDF1) mice
condition-set: endpoint: mean survival time; dose: 100.0 mg/kg/injection; schedule: Q01DX009 (ip); vehicle: Klucel (hydroxypropylcellulose) (HPC); higher = longer survival
Toxic doses and inconclusive results are not listed.
Reported T/C values follow for various molecules

smiles-repr | T/C
COc1cc(Cl)c(CCBr)cc1OC | 89 % of control
O=C(/C=C/c1ccc(Cl)cc1)/C=C/c1ccc(Cl)cc1 | 98 % of control
Nc1nc(N)c2cc(CNc3ccc(C(=O)NC(CC(=O)O)CC(=O)O)cc3)cnc2n1 | 98 % of control

Ask: // query T/C value for entry COc1ccc(CNc2ccc([N+](=O)[O-])c3nonc23)cc1
Reply: 86 % of control

Ask: Need T/C of CC/C(=N/NS(=O)(=O)c1ccc(C)cc1)C(=O)O , thanks.
Reply: 96 % of control

* * *

T/C listing for selected compounds.
Test system: CD2F1 mice, L1210 leukemia ip, survival T/C
method-notes: NCI In Vivo Anticancer Drug Screen. Data for tumor model L1210 Leukemia (intraperitoneal) in CD2F1 (CDF1) mice
condition-set: endpoint: mean survival time; dose: 400.0 mg/kg/injection; schedule: Q04DX003 (ip); vehicle: saline with Tween-80; higher = longer survival
Toxic doses and inconclusive results are not listed.

compound | T/C
CCCCCCCCCCCCCCCCCS(=O)S(=O)O (stereo not given) | 93 % of control
C[N+]1(C)CCS(=O)(=O)CC1 | 86 % of control
O=C(O)CSc1nc2ccccc2s1 | 96 % of control
c1ccc2c3c([nH]c2c1)CCCCC3 | 94 % of control
COc1ccc(Cl)cc1N | 96 % of control

Please look at the following compound next.
Ask: Could you share what T/C was measured for O=C(Nc1cccc(O)c1)OCCCCl , tested on CD2F1 mice, L1210 leukemia ip, survival T/C?
Reply: 96 % of control

* * *

System: CD2F1 mice, L1210 leukemia ip, survival T/C
method-notes: NCI In Vivo Anticancer Drug Screen. Data for tumor model L1210 Leukemia (intraperitoneal) in CD2F1 (CDF1) mice
condition-set: endpoint: mean survival time; dose: 200.0 mg/kg/injection; schedule: Q01DX009 (ip); vehicle: saline with Tween-80; higher = longer survival
Toxic doses and inconclusive results are not listed.
// T/C lookup, one value per entry

Ask: Look at this compound and give its reported T/C. CC(=O)OCC(OC(C)=O)C(OC(C)=O)C(OC(C)=O)C(OC(C)=O)C(=O)C=O (configuration not stated)
Reply: 109 % of control

Ask: Entry under review: Nc1cccc2c1C(=O)c1cccc(Cl)c1C2=O . Reported T/C?
Reply: 106 % of control

Ask: Quick one: T/C of CN1CSC(=S)N(Cc2ccccc2)C1 ?
Reply: 93 % of control

Ask: Which measured T/C value corresponds to CC1=NN(c2ccccc2)C(=O)C1 ?
Reply: 102 % of control

Ask: Any idea what T/C was measured for COc1ccc(NC(=O)Nc2ccc(F)c(Cl)c2)c(OC)c1 ?
Reply: 103 % of control

Ask: I'd like to know its T/C. The compound in question is O=C(O)/C=C\C(=O)Nc1ccc(Cl)cc1
Reply: 93 % of control

Ask: Any idea what its T/C is? The compound is CCOC(=O)CC(=O)c1c(C)cc(C)cc1C
Reply: 96 % of control

Ask: For the compound CSc1nc(N)cc(N)n1 , what T/C is on record?
Reply: 95 % of control

Ask: Would you mind telling me what T/C value was observed for Cc1ccc(C(=O)C2CC(Br)C(Br)CC2C(=O)c2ccc(C)cc2)cc1 (configuration not stated) ?
Reply: 86 % of control

Ask: Fill blank: measured T/C of the compound Cc1cc(OCCOC(=O)Nc2c(Cl)cccc2Cl)cc(C)c1Cl is ____.
Reply: 107 % of control

Ask: // returns reported T/C for input CCCC1=CC(C)(C)CC(C)=C1 (tested in a mixture with another compound)
Reply: 100 % of control

Ask: Query: T/C; subject: CCCCCCCC(=O)Nc1ccc(C)c(C)c1
Reply: 91 % of control

* * *

# Lookup of reported T/C keyed by entry
Tested on: CD2F1 mice, L1210 leukemia ip, survival T/C
method-notes: NCI In Vivo Anticancer Drug Screen. Data for tumor model L1210 Leukemia (intraperitoneal) in CD2F1 (CDF1) mice
condition-set: endpoint: mean survival time; dose: 100.0 mg/kg/injection; schedule: Q04DX003 (ip); vehicle: saline with Tween-80; higher = longer survival
Inconclusive results and toxic doses are left out.

See these solved cases before continuing.
compound | T/C
CCCCC(C(=O)OCC)C(=O)c1ccccc1 (stereo not given) | 96 % of control
O=c1cc(Cl)c(=O)[nH][nH]1 | 94 % of control
CCc1cc(CSc2ccc(Cl)cc2)ccc1N | 102 % of control
O/N=C/c1ccc(O)cc1 | 91 % of control
Clc1ccccc1/C=C1\c2ccccc2-c2nc3ccccc3nc21 | 109 % of control

Ask: Item Cc1ccnc(-n2c(N)cc(=O)[nH]c2=S)c1 has what recorded T/C?
Reply: 97 % of control

Ask: What measured T/C goes with Nc1ccc2c(c1)C=CCS2 ?
Reply: 104 % of control

Ask: # query: T/C of entry O=C(NCc1ccccc1)C1C2CC3OC(=O)C1C3C2 (stereo not given)
Reply: 114 % of control

Ask: Form field: reported T/C of NC(=O)N/N=C\c1ccco1
Reply: 102 % of control

Ask: Fill blank: measured T/C of the compound COC(=O)c1ncccc1C(=O)O is ____.
Reply: 94 % of control

* * *

System: CD2F1 mice, L1210 leukemia ip, survival T/C
method-notes: NCI In Vivo Anticancer Drug Screen. Data for tumor model L1210 Leukemia (intraperitoneal) in CD2F1 (CDF1) mice
condition-set: endpoint: mean survival time; dose: 200.0 mg/kg/injection; schedule: Q04DX003 (ip); vehicle: saline; higher = longer survival
Toxic doses and inconclusive results are not listed.
recorded-metric: T/C

Please review the entries below; each comes with its answer.
compound | target-under-test | T/C
CS(=O)(=O)c1ccnc2ccccc12 | CD2F1 mice, L1210 leukemia ip, survival T/C | 92 % of control
Oc1ccc(Sc2ccc(O)cc2O)c(O)c1 | CD2F1 mice, L1210 leukemia ip, survival T/C | 103 % of control

Ask: Which T/C is reported for this compound? CCCCNC(C)(C)C(SS)c1ccc(Cl)cc1 (stereo unspecified)
Reply: 105 % of control

Ask: Query: T/C; subject: O=C(O)CC(C(=O)O)C(=O)O
Reply: 97 % of control

Ask: Entry CCNc1nc(NC(C)C)nc(OC)n1 has what T/C?
Reply: 103 % of control

Ask: Form field: reported T/C of CC1=CCC(O)(C(C)C)CC1 (stereo unspecified)
Reply: 98 % of control

* * *

System: CD2F1 mice, L1210 leukemia ip, survival T/C
method-notes: NCI In Vivo Anticancer Drug Screen. Data for tumor model L1210 Leukemia (intraperitoneal) in CD2F1 (CDF1) mice
condition-set: endpoint: mean survival time; dose: 100.0 mg/kg/injection; schedule: Q04DX002 (ip); vehicle: saline with Tween-80; higher = longer survival
Toxic doses and inconclusive results are not listed.
Parameter T/C: see the listing below.

compound | T/C
Cc1cc(SC(=O)N(C)C)c(S(=O)(=O)F)cc1Cl | 87 % of control

Ask: Value lookup for T/C; key = COc1ccc(C(=O)C(C)(C)C)cc1
Reply: 108 % of control

Ask: Please look up its T/C: OC1CCCN(c2c3ccccc3nc3ccccc23)C1 (stereo unspecified)
Reply: 100 % of control

Ask: For CCOC(=O)Cc1nc2ccccc2[nH]1 , what is its reported T/C?
Reply: 101 % of control

Ask: Quick one: T/C for CCCCCCCS(=O)CCCl (stereo unspecified) ?
Reply: 96 % of control

Ask: So what does the record say about T/C for CCOC(=O)C(=O)C1CCc2c(ccc3ccccc23)C1=O (stereo unspecified) ?
Reply: 96 % of control

Ask: Consider the compound CCOC(=O)C(CCC(O)C#N)(NC(C)=O)C(=O)OCC (stereo unspecified) and give its measured T/C.
Reply: 100 % of control

Ask: Reported T/C, compound CC(=O)CC(C)=Nc1cccc(Cl)c1 : ____
Reply: 98 % of control

Ask: # query: T/C of entry CC(N(N=O)c1cccc(Cl)c1)S(=O)(=O)O (stereo unspecified)
Reply: 101 % of control

Ask: Value lookup for T/C; key = O/N=C(\c1ccccc1)C1C(/C(=N/O)c2ccccc2)C1c1ccccc1 (stereo unspecified)
Reply: 87 % of control

Ask: Look at this compound and give its reported T/C. Nc1ccccc1-c1n[nH]c2ccccc12
Reply: 103 % of control
